tested target: T1, CD137-hisFc fusion protein (Sino Biological Cat 10041-H03H) (human, UniProt Q07011 24-186)
T1 construct: Bought; also called recombinant human CD137 (fused with human Fc and His tag); not shown: His tag and human Fc
assay comment: BLI Octet, Fab
Catalogue of koff readings, one per entry.
A complete answer gives the number followed by the unit.

Documented koff of Fab 5310 (Fab, V domains shown, Fab from E. coli; also called VH15/VL15) VH: EVQLVESGGGLVQPGGSLRLSCAASGFSLSTSGVGVGWIRQAPGKGLEWLALIDWDDDKYYSPSLKSRLTISRDNSKNTLYLQLNSLRAEDTAVYYCARGGSDTVLGDWFAYWGQGTLVTVSS VL: DIQLTQSPSSLSASVGDRVTITCRASQSVSPYLAWYQQKPGKAPKLLIYDASSLESGVPSRFSGSGSGTDFTLTISSLQPEDFATYYCQQGYSLWTFGQGTKVEIKR : 0.00465 s⁻¹

Documented koff of Fab 5314 (Fab, V domains shown, Fab from E. coli; also called VH16/VL16) VH: EVQLVESGGGLVQPGGSLRLSCAASGFSLSTGGVAVGWIRQAPGKGLEWLALIDWAGDKSYSTSLKSRLTISRDNSKNTLYLQLNSLRAEDTAVYYCARGGSDTVLGDWFAYWGQGTLVTVSS VL: DIQLTQSPSSLSASVGDRVTITCRASQGVSPYLAWYQQKPGKAPKLLIYDASNRATGIPSRFSGSGSGTDFTLTISSLQPEDFATYYCQQGYSTWTFGQGTKVEIKR : 0.00177 s⁻¹

Documented koff of Fab 7087 (Fab, V domains shown, Fab from E. coli; also called VH45/VL45) VH: EVQLVESGGGLVQPGGSLRLSCAASGFSLSTGGVGVGWIRQAPGKGLEWVSYISGDGDTTYYADSVKGRFTISRDNSKNTLYLQLNSLRAEDTAVYYCAREGSTAVLGDWFAYWGQGTLVTVSS VL: DIQLTQSPSSLSASVGDRVTITCRASQGISSYLAWYQQKPGKAPKLLIYDASNLETGVPSRFSGSGSGTDFTLTISSLQPEDFATYYCQQYYTTPLTFGQGTKVEIKR : 0.00855 s⁻¹
